study target: T1, human CD4 on human PBMCs (human, UniProt P01730 26-458)
T1 construct: whole, on cells; the CD4-positive gate was set with the control antibodies OKT4 and RPA-T4; also called hCD4
assay: FACS, clonal hybridoma supernatant on human PBMCs
measured metric: % CD4 Stain (%)
Report the figure in % without appending any unit label.

>>> quantitative_readout("75110_14P08A (antibody, V domains shown, Tested as clonal hybridoma supernatant from AlivaMab Mouse Kappa mice: human variable regions, human kappa, mouse Fc) VH: QVQLQESGPGLVKSSETLSLTCTDSGDSIRSYYWNWIRQPAGKGLEWIGRIYASGSTNYNPSLKSRVIMSADTSKNRFSLKLSSVTAADTAVYYCARDGGVGDSLDYWGQGTLVTVSS VL: DIVMTQTPLSLPVTPGEPASISCRSSQSLLDSDDGNTYLDWYLQKPGQSPQLLIYTLSYRASGVPDRFSGSGSGTDFTLKISRVEAEDVGVYYCMQRIEFPFTFGPGTKVDIK")
28.3
>>> quantitative_readout("75110_14N19A (antibody, V domains shown, Tested as clonal hybridoma supernatant from AlivaMab Mouse Kappa mice: human variable regions, human kappa, mouse Fc) VH: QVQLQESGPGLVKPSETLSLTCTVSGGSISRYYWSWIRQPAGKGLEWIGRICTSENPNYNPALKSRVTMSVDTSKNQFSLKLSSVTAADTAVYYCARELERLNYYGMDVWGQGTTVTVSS VL: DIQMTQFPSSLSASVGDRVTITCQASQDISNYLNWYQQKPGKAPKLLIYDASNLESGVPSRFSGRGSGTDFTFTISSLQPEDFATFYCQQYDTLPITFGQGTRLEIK")
32.5

Here is another binder to look at.
Query: Fill blank: measured % CD4 Stain of the binder 75110_13P22A (antibody, V domains shown, Tested as clonal hybridoma supernatant from AlivaMab Mouse Kappa mice: human variable regions, human kappa, mouse Fc) VH: QVQLQQWGAGLLKPSETLSLTCAAYGGSFSGYYWSWIRQSPGKGLEWIGEINQSGNTNYNPSLKSRVTISADTSKNQFSLKLSSVTAADTAVYYCARVLNWFDYWGQGILVTVSS VL: DIQMTQSPSSVSASVGDRVTITCRASQGISDWLAWYQQKSGKAPDLLIFAASSLQSGVPSRFSGSGSGTDFTLTISSLQPEDFATYYCQQANSFPYTFGQGTKLEIK is ____.
Response: 37.5
